Each recorded value in this set is attributed to ChEMBL document CHEMBL1201862.

Consider the following compounds and their measured IC50 readings.
target: Carboxy-terminal domain RNA polymerase II polypeptide A small phosphatase 1 (Homo sapiens, UniProt Q9GZU7); assay: CTDSP1 inhibitors, concentration-response, biochemical, absorbance readout, ultra-high-throughput screen actives (AID 540297); assay type: functional
Sequence (Q9GZU7 whole entry, the tested form may be a part): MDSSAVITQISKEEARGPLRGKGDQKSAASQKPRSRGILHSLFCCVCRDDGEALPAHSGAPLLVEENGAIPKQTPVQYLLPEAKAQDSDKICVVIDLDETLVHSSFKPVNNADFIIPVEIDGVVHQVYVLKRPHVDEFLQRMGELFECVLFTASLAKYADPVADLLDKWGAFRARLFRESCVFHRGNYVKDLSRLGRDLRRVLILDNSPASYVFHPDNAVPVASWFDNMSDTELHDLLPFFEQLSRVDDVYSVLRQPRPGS
Calls of active or inactive are those of the source.
readout_kind: IC50

[[record]]
compound = "CCOC(=O)c1ccc(NC(=O)CSc2nc(C)cc(=O)[nH]2)cc1"
result = "2.67 µM (active)"

[[record]]
compound = "CC(=O)OCC1=C(C(=O)O)N2C(=O)[C@@H](NC(=O)Cc3cccs3)[C@H]2SC1"
result = "2.79 µM (active)"

[[record]]
compound = "CCN(CC)CCNC(C(=O)Nc1cc(C(F)(F)F)ccc1Cl)c1ccccc1 (centres undefined)"
result = "9.32 µM (active)"

[[record]]
compound = "O=C(COc1ccc([N+](=O)[O-])cc1)Nc1ccc(C(=O)Nc2ccccc2C(=O)O)cc1"
result = "12.3 µM (active)"

[[record]]
compound = "O=C(O)c1cccc(-n2cccc2/C=C2/SC(=O)N(CC(=O)N3CCCC3)C2=O)c1"
result = "5.53 µM (active)"

[[record]]
compound = "O=C1COc2ccc(C(=O)COC(=O)/C=C/c3ccco3)cc2N1"
result = "13.4 µM (active)"

[[record]]
compound = "O=C(CCCCCCCCC(=O)N/N=C/c1ccco1)N/N=C/c1ccco1"
result = "11.5 µM (active)"

[[record]]
compound = "COc1ccc(-c2csc(NC(=O)CSc3nc(C)nc4sc(C(=O)O)c(C)c34)n2)cc1"
result = "4.31 µM (active)"

[[record]]
compound = "O=C(c1nc2ccc(Cl)cn2c1CN1CCCC1)N1CCc2ccccc2C1"
result = "17.5 µM (active)"


---

Item-by-item account of AC50
biological target: Cytochrome P450 1A2 (Homo sapiens, UniProt P05177);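 also: PubChem cytochrome P450 panel assay, CYP1A2 panel member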
Sequence (P05177 whole entry): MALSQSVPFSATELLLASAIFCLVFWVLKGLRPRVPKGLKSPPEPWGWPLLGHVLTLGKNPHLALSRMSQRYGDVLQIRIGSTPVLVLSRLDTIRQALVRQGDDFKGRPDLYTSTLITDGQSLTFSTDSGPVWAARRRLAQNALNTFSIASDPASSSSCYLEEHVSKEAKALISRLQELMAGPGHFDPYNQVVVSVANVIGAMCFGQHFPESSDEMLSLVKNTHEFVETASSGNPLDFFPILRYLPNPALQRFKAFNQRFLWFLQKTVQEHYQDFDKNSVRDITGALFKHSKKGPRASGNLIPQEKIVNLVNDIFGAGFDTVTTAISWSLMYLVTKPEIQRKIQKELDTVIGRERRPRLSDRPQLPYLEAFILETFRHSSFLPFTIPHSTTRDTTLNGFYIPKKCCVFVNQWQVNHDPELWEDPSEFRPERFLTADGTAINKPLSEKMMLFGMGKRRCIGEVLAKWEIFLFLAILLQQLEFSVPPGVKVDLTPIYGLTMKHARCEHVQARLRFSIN
readout_kind: AC50

[[record]]
compound = "O[C@@H]1[C@H](O)[C@H]2[C@@H](O)CCN2C[C@@H]1O"
result = "31.6 µM (inconclusive)"

[[record]]
compound = "COC(=O)c1c(-c2ccc3ccccc3c2)csc1NC(=O)Cc1ccc(OC)c(OC)c1"
result = "11.2 µM (inconclusive)"

[[record]]
compound = "O=C(NCc1ccccn1)C1CC(c2ccc(Cl)c(Cl)c2)=NO1 (stereo not given)"
result = "4.47 µM (inconclusive)"

[[record]]
compound = "Cc1nn2c(O)c(C#N)c(-c3ccccc3)nc2c1-c1ccccc1"
result = "20 µM (inconclusive)"

[[record]]
compound = "COc1ccc(OC)c(S(=O)(=O)N2CCC(C(=O)Nc3ccc(C)c(C)c3)CC2)c1"
result = "12.6 µM (inconclusive)"

[[record]]
compound = "Cc1ncc([N+](=O)[O-])n1CCOC(=O)NC(NCc1ccccc1)C(Cl)(Cl)Cl (stereo not given)"
result = "25.1 µM (inconclusive)"

[[record]]
compound = "O=C(Nc1ccccc1)N1CC[C@@]2(CCCN(C(=O)c3ccco3)C2)C1"
result = "10 µM (inconclusive)"

[[record]]
compound = "CN1CCN(c2ncc3nc(-c4cccs4)c(=O)n(CCc4ccccc4)c3n2)CC1"
result = "2.51 µM (inconclusive)"

[[record]]
compound = "COc1ccc(N2CCN(C(=O)CSc3nnc4c5cc(C)ccc5n(C)c4n3)CC2)cc1"
result = "5.62 µM (inconclusive)"

[[record]]
compound = "CN(C)C(=O)c1ccc(-c2cc(Nc3ccccc3)ncn2)cc1"
result = "12.6 µM (inconclusive)"


---

AC50 values, listed per item
Biological target: Microphthalmia-associated transcription factor (Homo sapiens, UniProt O75030)
Sequence (O75030 whole entry): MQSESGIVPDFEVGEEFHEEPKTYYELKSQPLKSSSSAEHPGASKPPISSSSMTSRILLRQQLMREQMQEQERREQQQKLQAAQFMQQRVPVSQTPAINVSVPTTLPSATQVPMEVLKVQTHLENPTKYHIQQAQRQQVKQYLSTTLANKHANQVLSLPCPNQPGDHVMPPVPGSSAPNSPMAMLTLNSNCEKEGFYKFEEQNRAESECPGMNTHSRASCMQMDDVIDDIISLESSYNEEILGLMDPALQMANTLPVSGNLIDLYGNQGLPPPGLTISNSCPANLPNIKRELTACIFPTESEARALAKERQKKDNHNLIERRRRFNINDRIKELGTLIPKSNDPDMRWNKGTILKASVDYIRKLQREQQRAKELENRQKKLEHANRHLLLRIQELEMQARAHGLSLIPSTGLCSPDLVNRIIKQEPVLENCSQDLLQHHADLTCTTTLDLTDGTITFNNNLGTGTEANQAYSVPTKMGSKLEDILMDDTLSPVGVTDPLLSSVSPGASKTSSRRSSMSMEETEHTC
Test: reducers of TRPM1 reporter luminescence, concentration series – cell-based, SK-MEL-5, cherry-picked, set 3, MITF inhibitor project, dose response (AID 493073);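 also: SK-MEL-5 melanoma cells with luciferase driven by the MITF target TRPM1 promoter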
Assay type: functional
Activity calls are given as the source filed them.
readout_kind: AC50

[[record]]
compound = "Cc1ccc(-c2cc(-c3ccc(C)cc3)[n+](C)o2)cc1.[O-][Cl+3]([O-])([O-])[O-]"
subject_of_test = "Microphthalmia-associated transcription factor (Homo sapiens, UniProt O75030)"
result = "8.24 µM (active)"

[[record]]
compound = "O=C(/C=C/c1cccc([N+](=O)[O-])c1)c1cccs1"
subject_of_test = "Microphthalmia-associated transcription factor (Homo sapiens, UniProt O75030)"
result = "15.3 µM (active)"

[[record]]
compound = "CC(C)Oc1ccc(C(CCNCc2ccc(O)cc2)c2ccccc2)cc1 (stereo not given)"
subject_of_test = "Microphthalmia-associated transcription factor (Homo sapiens, UniProt O75030)"
result = "12.8 µM (active)"

[[record]]
compound = "Cc1cc(C)cc(OCC(=O)N/N=C/c2ccc([N+](=O)[O-])o2)c1"
subject_of_test = "Microphthalmia-associated transcription factor (Homo sapiens, UniProt O75030)"
result = "7.12 µM (active)"

[[record]]
compound = "Cc1ccc(-n2cc(CNCCCn3ccnc3C)c(-c3ccc(F)cc3)n2)cc1"
subject_of_test = "Microphthalmia-associated transcription factor (Homo sapiens, UniProt O75030)"
result = "7.58 µM (active)"


---

experiment: blockers of CRF-binding protein–CRF-R2 complex – cell-based, uHTS hits, 384-well, dose response (AID 651639); format: functional, Homo sapiens; conditions: read-out: IC50_Mean
Calls of active or inactive are those of the source.
Outcome codes: class 1 (active), class 0 (inactive)

[[record]]
molecule = "Cc1nc2ccccc2n1CCOc1ccc([N+](=O)[O-])cc1"
assigned_label = "class 1"

[[record]]
molecule = "COc1ccccc1CN(C)C(=O)C(c1ccccc1)c1ccccc1"
assigned_label = "class 0"

[[record]]
molecule = "Cc1[nH]n(-c2cccc(Cl)c2)c(=O)c1-c1ccc(Cl)cc1"
assigned_label = "class 0"

[[record]]
molecule = "Cc1ccc(C)c(S(=O)(=O)C(C#N)c2nc3ccccc3nc2N2CCOCC2)c1 (centres undefined)"
assigned_label = "class 0"


---

molecular target: Orexin receptor type 2 (Homo sapiens); assay: Counterscreen assay for antagonists of the orexin 1 receptor (OX1R; HCRTR1): Homogeneous Time Resolved Fluorescence (HTRF)-based cell-based dose response assay for antagonists of the orexin 2 receptor (OX2R; HCRTR2), run by assay provider.; format: functional
Sequence (O43614 whole entry): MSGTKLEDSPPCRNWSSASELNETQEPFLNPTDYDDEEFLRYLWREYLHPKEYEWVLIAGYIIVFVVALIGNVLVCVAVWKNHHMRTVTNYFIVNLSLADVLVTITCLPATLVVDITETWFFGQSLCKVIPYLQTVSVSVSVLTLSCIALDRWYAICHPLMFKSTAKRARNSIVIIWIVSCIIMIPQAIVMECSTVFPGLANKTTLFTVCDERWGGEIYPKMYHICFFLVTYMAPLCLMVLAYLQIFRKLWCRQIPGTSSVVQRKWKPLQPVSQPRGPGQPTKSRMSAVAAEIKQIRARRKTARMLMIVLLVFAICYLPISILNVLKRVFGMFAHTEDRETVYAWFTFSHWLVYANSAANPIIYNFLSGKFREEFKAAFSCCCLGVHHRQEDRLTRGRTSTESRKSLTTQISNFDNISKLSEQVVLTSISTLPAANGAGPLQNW
The source made the active and inactive calls.
Outcomes: yes (1) for active, no (0) for inactive

[[record]]
molecule = "CCN(C(=O)CO/N=C/c1ccc(OC)cc1OC)c1c(N)n(Cc2ccccc2)c(=O)[nH]c1=O"
assigned_label = "yes (1)"

[[record]]
molecule = "O=c1c2ccccc2oc2cc(-c3ccc4[nH]ccc4c3)ccc12"
assigned_label = "no (0)"

[[record]]
molecule = "CCn1c2ccccc2c2nc3ccccc3nc21"
assigned_label = "yes (1)"

[[record]]
molecule = "Cc1noc(C)c1S(=O)(=O)Nc1ccc(O)c2c(=O)cc(-c3ccccc3Cl)oc12"
assigned_label = "yes (1)"

[[record]]
molecule = "CCN(CC)c1ccc(/C=N/NC(=O)c2ccco2)c(O)c1"
assigned_label = "no (0)"

[[record]]
molecule = "CC(NS(=O)(=O)c1ccc(OCC(=O)Nc2cccc([N+](=O)[O-])c2)cc1)c1ccccc1 (stereo unspecified)"
assigned_label = "no (0)"


---

biological target: Orexin/Hypocretin receptor type 1 (Homo sapiens, UniProt O43613); assay: Fluorescence-based cell-based high throughput dose response assay for antagonists of the orexin 1 receptor (OX1R; HCRTR1). [Related pubchem assays (depositor defined):AID434989, AID435008, AID463079, AID485270, AID492963, AID492964, AID492965, AID493232, AID504717, AID504718]; format: functional
Sequence (O43613 whole entry): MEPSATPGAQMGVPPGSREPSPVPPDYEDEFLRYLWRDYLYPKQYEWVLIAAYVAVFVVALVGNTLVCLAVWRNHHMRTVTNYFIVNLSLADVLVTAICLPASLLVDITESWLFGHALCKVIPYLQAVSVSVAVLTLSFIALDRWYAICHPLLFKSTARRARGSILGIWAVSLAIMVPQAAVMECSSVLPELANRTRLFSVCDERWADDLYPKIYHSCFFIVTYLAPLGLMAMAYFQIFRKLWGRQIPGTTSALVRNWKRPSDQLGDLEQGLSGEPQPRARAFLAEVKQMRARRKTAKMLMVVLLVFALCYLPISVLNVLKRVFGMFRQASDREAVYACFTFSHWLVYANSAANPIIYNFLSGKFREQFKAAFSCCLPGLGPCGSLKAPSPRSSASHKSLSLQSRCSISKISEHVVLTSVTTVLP
Active and inactive are the calls of the source.
Possible outcomes: 1 for active, -1 for inactive

[[record]]
compound = "O=c1c2ccccc2oc2cc(-c3ccc4[nH]ccc4c3)ccc12"
assigned_label = 1

[[record]]
compound = "Cc1noc(C)c1S(=O)(=O)Nc1ccc(O)c2c(=O)cc(-c3ccccc3Cl)oc12"
assigned_label = -1

[[record]]
compound = "CCN(CC)c1ccc(/C=N/NC(=O)c2ccco2)c(O)c1"
assigned_label = 1

[[record]]
compound = "CCN(C(=O)CO/N=C/c1ccc(OC)cc1OC)c1c(N)n(Cc2ccccc2)c(=O)[nH]c1=O"
assigned_label = 1

[[record]]
compound = "CC(NS(=O)(=O)c1ccc(OCC(=O)Nc2cccc([N+](=O)[O-])c2)cc1)c1ccccc1 (stereo unspecified)"
assigned_label = -1

[[record]]
compound = "CCn1c2ccccc2c2nc3ccccc3nc21"
assigned_label = 1

